Sequence of the target: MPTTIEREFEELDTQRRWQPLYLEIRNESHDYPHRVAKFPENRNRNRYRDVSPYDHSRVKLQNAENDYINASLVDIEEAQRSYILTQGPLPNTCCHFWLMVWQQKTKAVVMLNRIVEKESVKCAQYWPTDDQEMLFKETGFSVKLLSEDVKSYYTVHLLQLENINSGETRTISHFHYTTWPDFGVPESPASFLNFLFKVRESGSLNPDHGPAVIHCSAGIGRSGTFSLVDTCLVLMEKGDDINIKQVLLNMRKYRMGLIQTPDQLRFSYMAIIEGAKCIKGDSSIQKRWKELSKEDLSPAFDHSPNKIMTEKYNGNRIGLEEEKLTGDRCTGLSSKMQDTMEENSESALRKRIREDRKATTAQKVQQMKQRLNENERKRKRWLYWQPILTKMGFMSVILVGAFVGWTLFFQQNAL
Entries and their IC50

Solved entries (count: 2):
# query.smiles, observed.measurement
data = [
    ("O=C1CN(c2c(O)ccc(-c3cnc(C4CC4)o3)c2F)S(=O)(=O)N1", "≤ 1000 nM"),
    ("O=C1CN(c2c(O)ccc(-c3nnc(-c4ccccc4)o3)c2F)S(=O)(=O)N1", "> 1000 nM"),
]

For the compound shown here, O=C1CN(c2c(O)ccc(-c3cc(C4CC4)n(C(F)F)n3)c2F)S(=O)(=O)N1 , give the reported IC50.
≤ 1000 nM

Same again, this time with O=C1CN(c2c(O)ccc(C3=CCCNC3)c2F)S(=O)(=O)N1
≤ 1000 nM

* * *

We begin with a simple list: items and their reported pIC50.
- target.desc: UniProt:P17706
- Sequence (P17706 1-415): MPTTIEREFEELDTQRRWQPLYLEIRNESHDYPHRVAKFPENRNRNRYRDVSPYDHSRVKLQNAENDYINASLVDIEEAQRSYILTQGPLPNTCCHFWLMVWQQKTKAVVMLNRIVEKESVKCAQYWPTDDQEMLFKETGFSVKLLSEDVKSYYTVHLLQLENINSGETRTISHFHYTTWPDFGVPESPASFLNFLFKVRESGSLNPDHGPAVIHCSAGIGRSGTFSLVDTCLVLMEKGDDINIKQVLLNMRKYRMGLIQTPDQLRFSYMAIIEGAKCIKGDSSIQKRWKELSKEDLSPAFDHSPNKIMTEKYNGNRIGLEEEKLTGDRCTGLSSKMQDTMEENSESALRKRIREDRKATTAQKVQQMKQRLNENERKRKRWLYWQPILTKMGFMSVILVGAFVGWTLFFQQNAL
pIC50: −log10 of the molar value.

Form entry - test system: UniProt:P17706; read-out: pIC50; compound: N#C[C@H]1CC[C@@H](n2cnc(-c3ccc(O)c(N4CC(=O)NS4(=O)=O)c3F)c2)CC1 [Compound 357]
≥ 6.00

* * *

Below are IC50 values measured for PTPN2 (i.e., TC-PTP) (Homo sapiens, UniProt P17706).

Example entries and their recorded answers appear below.
# compound, endpoint.label, observed.measurement
rows = [
    ("O=C1CN(c2c(O)ccc(-c3cn(C4CCCC4)cn3)c2F)S(=O)(=O)N1", "IC50", "≤ 1000 nM"),
    ("O=C1CN(c2c(O)ccc(-c3cnn(S(=O)(=O)C4CC4)c3)c2F)S(=O)(=O)N1", "IC50", "≤ 1000 nM"),
]

As a next step, examine the compound that follows.
Kindly state the measured IC50 obtained for O=C1CN(c2c(O)ccc(-c3cc(CCC4CCC4)n[nH]3)c2F)S(=O)(=O)N1 with PTPN2 (i.e., TC-PTP) (Homo sapiens, UniProt P17706).
≤ 1000 nM
